// reported Binding for each item listed
- Species on record: Homo sapiens
- test: In vitro protein binding in human serum at 5 ug/ml
- Format: ADME
Write down the numeric answer in % and omit the unit.

As a guide, the following entries are already answered.
compound_string=O=C(Nc1ccc(-n2nc(C(F)(F)F)cc2C(F)(F)F)cc1)c1ccccc1F result_unit=% assay_value=99.9
compound_string=O=C(Nc1ccc(-n2nc(C(F)(F)F)cc2C(F)(F)F)cc1)c1cccc(F)c1F result_unit=% assay_value=99.9

**Query** State its Binding: O=C(Nc1ccc(-n2nc(C(F)(F)F)cc2C(F)(F)F)cc1)c1cc(F)cc(F)c1F
**Result** 99.9

**Query** Retrieve Binding measured for Cc1nnsc1C(=O)Nc1ccc(-n2nc(C(F)(F)F)cc2C(F)(F)F)cc1 and print it.
**Result** 99.8

**Query** Give the reported Binding for this molecule. O=C(Nc1ccc(-n2nc(C(F)(F)F)cc2C(F)(F)F)cc1)c1ccc(Cl)cc1
**Result** 99.9
